Tested on: Trypanosoma brucei
protocol-text: Trypanocidal activity against bloodstream form of nifurtimox-resistant Trypanosoma brucei after 72 hrs by Alamar blue assay
Type: functional, organism-based
measurement-label: EC50

Ask: I have this compound here, "C=CCOc1ccc(NC(=O)c2ccc([N+](=O)[O-])o2)cc1C(F)(F)F" , and I need its recorded EC50.
Reply: 7.8 nM

----------
protocol-text: Selectivity index, ratio of EC50 for human HeLa cells to EC50 for bloodstream form of Trypanosoma brucei brucei 427
Format: toxicity, cell-based
assay-setup: read-out: Ratio EC50
measurement-label: selectivity ratio

molecule	result
CCc1cc(C(=O)OC)c(NC(=O)c2ccc([N+](=O)[O-])o2)s1	> 950

Ask: I have this compound here, "COc1ccc(NC(=O)c2ccc([N+](=O)[O-])o2)cc1C" , and I need its recorded selectivity ratio.
Reply: > 525

Ask: Query "O=C(Nc1cccc(C(F)(F)F)c1)c1ccc([N+](=O)[O-])o1" next
Reply: > 4450

Ask: Query "CCNC(=O)c1cc(CC)sc1NC(=O)c1ccc([N+](=O)[O-])o1" next
Reply: > 136

Ask: Query "C=CCOc1ccc(NC(=O)c2ccc([N+](=O)[O-])o2)cc1C(F)(F)F" next
Reply: > 8330

Ask: Query "CCCCc1cc(C(=O)OCC)c(NC(=O)c2ccc([N+](=O)[O-])o2)s1" next
Reply: > 160

Ask: Query "COc1cccc(NC(=O)c2ccc([N+](=O)[O-])o2)c1" next
Reply: > 345

Ask: Query "O=C(Nc1ccc(C(F)(F)F)cc1)c1ccc([N+](=O)[O-])o1" next
Reply: > 158

Ask: Query "O=C(Nc1cc(C(F)(F)F)cc(C(F)(F)F)c1)c1ccc([N+](=O)[O-])o1" next
Reply: > 78

Ask: Query "O=C(NCc1cccc(C(F)(F)F)c1)c1ccc([N+](=O)[O-])o1" next
Reply: > 1150

Ask: Query "O=C(Nc1ccccc1)c1ccc([N+](=O)[O-])o1" next
Reply: > 710

Ask: Query "CCOC(=O)c1ccsc1NC(=O)c1ccc([N+](=O)[O-])o1" next
Reply: > 278

----------
Test system: Trypanosoma brucei brucei
protocol-text: Trypanocidal activity against bloodstream form of Trypanosoma brucei brucei 427 after 72 hrs by Alamar blue assay
Assay type: functional, organism-based
assay-setup: Trypanosoma brucei, 427, 72 h
Readings of pEC50 for the listed molecules
Field pEC50 (float): negative decimal logarithm of the concentration in molar.

molecule	experimental-system	pEC50
CCNC(=O)c1cc(CC)sc1NC(=O)c1ccc([N+](=O)[O-])o1	Trypanosoma brucei brucei	6.83

Ask: Please tell me: pEC50 of "CCCCOC(=O)c1cc(CC)sc1NC(=O)c1ccc([N+](=O)[O-])o1" , system Trypanosoma brucei brucei?
Reply: 7.49

----------
Readings of EC50 for the listed compounds
Test system: Trypanosoma brucei brucei
protocol-text: Trypanocidal activity against bloodstream form of Trypanosoma brucei brucei 427 after 72 hrs by Alamar blue assay
Type: functional, organism-based
assay-setup: Trypanosoma brucei, 427, 72 h
Answer with a number only, understood to be in µM.

# example entries with known answers
molecule	EC50 [µM]
CCOC(=O)c1ccsc1NC(=O)c1ccc([N+](=O)[O-])o1	0.0723
O=C(Nc1cccs1)c1ccc([N+](=O)[O-])o1	0.0626

Continue with the compound presented below.
Ask: I have this compound here, "COc1ccc(NC(=O)c2ccc([N+](=O)[O-])o2)cc1" , and I need its recorded EC50.
Reply: 0.0765
